In this section we review reported Tmax values for a set of compounds.
- experimental-details: Tmax in Swiss mouse at 20 to 100 mg/kg, po
- Assay type: ADME, organism-based
- Parameters: dose 20-100 mg/kg, route oral
- assay-setup: in vivo
Kindly provide the numeric value in min only, without the unit symbol.

CC(=O)N1CCN(C(c2ccc(Cl)cc2)c2cccnc2)CC1.O=C(O)CC(O)(CC(=O)O)C(=O)O (configuration not stated) ... 15

# evaluate next
Return reported Tmax; argument: CS(=O)(=O)N1CCN(C(c2cccnc2)c2ccc(Cl)cc2F)CC1.O=C(O)CC(O)(CC(=O)O)C(=O)O (configuration not stated)
15

====

- Test system: Mus musculus
- experimental-details: AUC (0 to 7.5 hrs) in Swiss mouse at 20 mg/kg, po
- Assay type: ADME, organism-based, Plasma
- Parameters: time < 7.5 hr, dose 20 mg/kg, route oral
- assay-setup: in vivo
In this section we review reported AUC values for a set of compounds.
Kindly provide the numeric value in µM·h only, without the unit symbol.

Return reported AUC; argument: CC(=O)N1CCN(C(c2ccc(Cl)cc2)c2cccnc2)CC1.O=C(O)CC(O)(CC(=O)O)C(=O)O (configuration not stated)
2.3

Return reported AUC; argument: CS(=O)(=O)N1CCN(C(c2cccnc2)c2ccc(Cl)cc2F)CC1.O=C(O)CC(O)(CC(=O)O)C(=O)O (configuration not stated)
7.2
